- Test system: HCV 1b_Huh-Luc/Neo-ET cell line persistently expressing a bicistronic genotype 1b replicon in Huh 7 cells
- Method Description: HCV replicon assay (luciferase readout, 72 h)
- Format: cell-based, HCV genotype 1b
- Experimental Conditions: Hepatitis C virus, Huh-7, 72 h, read-out: Inhibition of HCV genotype 1b
pEC50: −log10 of the molar value.
Quantity Name: pEC50

[ask] Recorded pEC50 for COC(=O)N[C@H](C(=O)N1CCC[C@H]1c1ncc(-c2ccc(C#Cc3ccc4nc([C@@H]5CCCN5)[nH]c4c3)cc2)[nH]1)C(C)C , please?
[reply] 6.00 to 8.00

Others:
[ask] Recorded pEC50 for CC(C)(C)OC(=O)N[C@@H](C(=O)N1CCC[C@H]1C(=O)NCc1ccc(C#Cc2cnc([C@@H]3CCCN3C(=O)[C@H](NC(=O)OC(C)(C)C)c3ccccc3)[nH]2)cc1)c1ccccc1 , please?
[reply] > 9.00

[ask] Recorded pEC50 for CC(C)[C@@H](NC(=O)OC(C)(C)C)C(=O)N1CCC[C@H]1C(=O)Nc1ccc(C#Cc2cnc([C@@H]3CCCN3C(=O)[C@H](NC(=O)OC(C)(C)C)C(C)C)[nH]2)cc1 , please?
[reply] 6.00 to 8.00

[ask] Recorded pEC50 for COC(=O)N[C@H](C(=O)N1CCSC[C@H]1c1ncc(-c2ccc(C#Cc3ccc4nc([C@@H]5CCCN5C(=O)[C@@H](NC(=O)OC)C(C)C)[nH]c4c3)cc2)[nH]1)C(C)C , please?
[reply] > 9.00

[ask] Recorded pEC50 for COC(=O)N[C@@H](C(=O)N1CCC[C@H]1c1ncc(-c2ccc(C#Cc3ccc(-c4cnc([C@@H]5CCCN5C(=O)[C@H](NC(=O)[C@@H]5CCCO5)c5ccccc5)[nH]4)cc3)cc2)[nH]1)c1ccccc1 , please?
[reply] > 9.00

====

Here the recorded EC50 is given for each entry.
- System: HCV 1b_Huh-Luc/Neo-ET cell line persistently expressing a bicistronic genotype 1b replicon in Huh 7 cells
- Method Description: HCV replicon assay (luciferase readout, 72 h)
- Type: cell-based, HCV genotype 1b
- Experimental Conditions: Hepatitis C virus, Huh-7, 72 h, read-out: Inhibition of HCV genotype 1b

Consider the worked cases shown below.
[ask] Recorded EC50 for CC[C@@H](C(=O)N1CCC[C@H]1c1ncc(-c2ccc(C#Cc3ccc(-c4cnc([C@@H]5CCCN5C(=O)[C@H](NC(=O)OC)c5ccccc5)[nH]4)cc3)cc2)[nH]1)c1ccccc1 [Compound 258] , please?
[reply] < 1 nM

[ask] Recorded EC50 for COC(=O)N[C@H](C(=O)N1CCCC[C@H]1c1ncc(-c2ccc(C#Cc3ccc4nc([C@@H]5CCCN5C(=O)[C@@H](NC(=O)OC)C(C)C)[nH]c4c3)cc2)[nH]1)C(C)C [Compound 1032] , please?
[reply] < 1 nM

[ask] Recorded EC50 for CC(C)[C@@H](NC(=O)N1CCC(O)CC1)C(=O)N1CCC[C@H]1c1ncc(-c2ccc(C#Cc3ccc(-c4cnc([C@@H]5CCCN5C(=O)[C@H](NC(=O)N5CCC(O)CC5)C(C)C)[nH]4)cc3)cc2)[nH]1 [Compound 959] , please?
[reply] < 1 nM

[ask] Recorded EC50 for C[C@@H](NC(=O)[C@@H]1CCCN1C(=O)[C@H](NC(=O)OC(C)(C)C)c1ccccc1)c1ccc(C#Cc2cnc([C@@H]3CCCN3C(=O)[C@H](NC(=O)OC(C)(C)C)c3ccccc3)[nH]2)cc1 [Compound 129] , please?
[reply] 10 to 999 nM

[ask] Recorded EC50 for COC(=O)N[C@@H](C(=O)N1CCC[C@H]1c1ncc(-c2ccc(C#Cc3ccc(-c4cnc([C@@H]5CCCN5C(=O)N5CCOCC5)[nH]4)cc3)cc2)[nH]1)c1ccccc1 [Compound 198] , please?
[reply] < 1 nM

Next, consider the following compound.
[ask] Recorded EC50 for COC(=O)N[C@@H](C(=O)N1CCC[C@H]1c1ncc(-c2ccc(C#Cc3ccc(-c4cnc([C@@H]5CCCN5C(=O)[C@@H]5CCCO5)[nH]4)cc3)cc2)[nH]1)c1ccccc1 [Compound 186] , please?
[reply] < 1 nM
